Test system: Caco-2
Test: cell viability relative to DMSO; higher = less toxic
Details: 72 h; 10 nM
Counter-ions that a name gives are not always drawn.
Listed here: items and their measured cell viability.

compound: O=C1S/C(=C\c2ccc(OCc3cccc(B(O)O)c3)cc2)C(=O)N1Cc1ccc(F)cc1
assayed-system: Caco-2
cell viability: 96%
//
compound: CO/N=C(\C(=O)N[C@@H]1C(=O)N2C(C(=O)O)=C(Cn3ccc(=N)n3CCO)CS[C@H]12)c1csc(N)n1 [Cefoselis sulfate]
assayed-system: Caco-2
cell viability: 97.6%
//
compound: O=c1[nH]c2ccccc2n1CCCN1CCN(C(c2ccccc2)c2ccccc2)CC1 [oxatomide]
assayed-system: Caco-2
cell viability: 98.6%
//
compound: C[C@H](N/C(=N/C#N)Nc1cccc2ncccc12)c1ccccc1
assayed-system: Caco-2
cell viability: 112%
//
compound: CC[N+](CC)(CCNC(=O)C(=O)NCC[N+](CC)(CC)Cc1ccccc1Cl)Cc1ccccc1Cl
assayed-system: Caco-2
cell viability: 96%

====

Listed here: items and their measured cell viability.
Tested on: HepG2
Assay: cell viability relative to DMSO; higher = less toxic
Details: 72 h; 1 nM

molecule: O=C(O)c1cc(O)c(O)c(O)c1
assayed-system: HepG2
cell viability (%): 100

molecule: CN1CCC(OC(c2ccccc2)c2ccccc2)CC1
assayed-system: HepG2
cell viability (%): 89.7

molecule: CCC[C@@]1(CCc2ccccc2)CC(O)=C([C@H](CC)c2cccc(NS(=O)(=O)c3ccc(C(F)(F)F)cn3)c2)C(=O)O1
assayed-system: HepG2
cell viability (%): 94.8

molecule: Cc1ccc(C(=O)C(C)CN2CCCCC2)cc1 (stereo not given)
assayed-system: HepG2
cell viability (%): 94.2

molecule: CC(C)[C@H](CO)Nc1nc(Nc2ccc(C(=O)O)c(Cl)c2)c2ncn(C(C)C)c2n1
assayed-system: HepG2
cell viability (%): 93.5

====

Test system: HepG2
Test: cell viability relative to DMSO; higher = less toxic
Settings: 72 h; 1000 nM
measured-endpoint: cell viability (%)

molecule: O=c1cccc2n1C[C@H]1C[C@@H]2CN(CCN2C[C@@H]3C[C@H](C2)c2cccc(=O)n2C3)C1
assayed-system: HepG2
reported: 97.4

molecule: COc1c(C)c2c(c(O)c1C/C=C(\C)CCC(=O)O)C(=O)OC2
assayed-system: HepG2
reported: 57.5

molecule: CS(=O)(=O)c1ccc(C2=C(c3ccccc3)C(=O)OC2)cc1
assayed-system: HepG2
reported: 103

molecule: Fc1ccc(C(OCCN2CCN(CCCc3ccccc3)CC2)c2ccc(F)cc2)cc1
assayed-system: HepG2
reported: 104

molecule: CC1(C)S[C@@H]2[C@H](NC(=O)[C@H](C(=O)O)c3ccsc3)C(=O)N2[C@H]1C(=O)O
assayed-system: HepG2
reported: 102

molecule: N[C@H]1C[C@@H]1c1ccccc1 (racemic)
assayed-system: HepG2
reported: 98.5

molecule: O=C(OC(C(F)(F)F)C(F)(F)F)N1CCC(C(O)(c2ccc3c(c2)OCO3)c2ccc3c(c2)OCO3)CC1
assayed-system: HepG2
reported: 106

molecule: Nc1ncnc2c1ncn2CCOCP(=O)(O)O
assayed-system: HepG2
reported: 98.7

molecule: Cc1oc(=O)oc1CN1CCN(c2cc3c(cc2F)c(=O)c(C(=O)O)c2n3C(C)S2)CC1 (stereo not drawn)
assayed-system: HepG2
reported: 106

molecule: CCC(C)SSc1ncc[nH]1 (stereo not drawn)
assayed-system: HepG2
reported: 98.3

molecule: O=C(c1c2ccccc2cc2ccccc12)N1CCC(N2CCC[C@@H](C(=O)N3CCOCC3)C2)CC1
assayed-system: HepG2
reported: 85.3

molecule: C=CC1=C(C)C2=CC3=NC(=C(CC(=O)O)C4=NC(=C(C)C4=C(O)O)C=c4[nH]c(c(C)c4CC)=CC1=N2)C(CCC(=O)O)C3C (stereo not drawn)
assayed-system: HepG2
reported: 112

molecule: CCC[C@H](N[C@@H](C)C(=O)N1[C@H](C(=O)O)C[C@@H]2CCCC[C@@H]21)C(=O)O
assayed-system: HepG2
reported: 105

molecule: NC(=S)N/N=C/c1ncccc1N
assayed-system: HepG2
reported: 93

molecule: N#CN1CCCC1
assayed-system: HepG2
reported: 95.2

molecule: CN1CC[C@H](c2c(O)cc(O)c3c(=O)cc(-c4ccccc4Cl)oc23)[C@H](O)C1
assayed-system: HepG2
reported: 9.5

molecule: CNC(=O)c1ccc(Nc2ncc(C(F)(F)F)c(NCc3nccnc3N(C)S(C)(=O)=O)n2)cc1
assayed-system: HepG2
reported: 81.4

molecule: CC(C)(C)NCc1cc(Nc2ccnc3cc(Cl)ccc23)c2c(c1O)CCCC2 [naphthoquine-phosphate]
assayed-system: HepG2
reported: 99.6

====

Listed here: items and their measured cell viability.
Test system: Caco-2
Test: cell viability relative to DMSO; higher = less toxic
Details: 72 h; 10 nM

compound: C[C@]12CC[C@H]3[C@@H](CCC4=CC(=O)CC[C@@H]43)[C@@H]1CC[C@@H]2O
assayed-system: Caco-2
cell viability: 91.3%
--
compound: CCOc1ccc2nc3cc(N)ccc3c(N)c2c1 [ethacridine-lactate-monohydrate]
assayed-system: Caco-2
cell viability: 104%
--
compound: O=C(O)CCC(=O)O
assayed-system: Caco-2
cell viability: 89.7%
--
compound: O=c1cc(-c2ccccc2)oc2cc(O)cc(O)c12
assayed-system: Caco-2
cell viability: 86.9%
--
compound: CCCCNNC(=O)c1ccc(Br)cc1
assayed-system: Caco-2
cell viability: 91.9%
--
compound: CNCC(O)c1ccc(O)c(O)c1 (racemic)
assayed-system: Caco-2
cell viability: 97.8%
--
compound: NS(=O)(=O)c1nn2cc(-c3ccccc3)nc2s1
assayed-system: Caco-2
cell viability: 99%
--
compound: Cc1ccc(F)c(NC(=O)Nc2ccc(-c3cccc4[nH]nc(N)c34)cc2)c1
assayed-system: Caco-2
cell viability: 100%
--
compound: Cc1cccc(-c2n[nH]cc2-c2ccc3ncccc3n2)n1
assayed-system: Caco-2
cell viability: 98.2%
--
compound: C[C@@H]1CN(Cc2ccc(F)cc2)CCN1C(=O)COc1ccc(Cl)cc1NC(N)=O
assayed-system: Caco-2
cell viability: 95.7%

====

Test system: HepG2
Experiment: relative viability EC50 (midpoint between 100% and the lowest measured viability); higher = less toxic
Settings: 72 h
Listed here: items and their measured relative viability EC50.

compound: C[C@H](CCC(=O)O)[C@H]1CC[C@H]2[C@@H]3[C@H](O)C[C@@H]4C[C@H](O)CC[C@]4(C)[C@H]3C[C@H](O)[C@]12C [cholic-acid]
relative viability EC50: > 10 µM
//
compound: Cc1ccc(C(=O)Nc2ccc(S(=O)(=O)O)c3cc(S(=O)(=O)O)cc(S(=O)(=O)O)c23)cc1NC(=O)c1cccc(NC(=O)Nc2cccc(C(=O)Nc3cc(C(=O)Nc4ccc(S(=O)(=O)O)c5cc(S(=O)(=O)O)cc(S(=O)(=O)O)c45)ccc3C)c2)c1 [suramin]
relative viability EC50: > 10 µM
//
compound: CN(C)c1cc(CNCC(C)(C)C)c(O)c2c1C[C@H]1C[C@H]3[C@H](N(C)C)C(O)=C(C(N)=O)C(=O)[C@@]3(O)C(O)=C1C2=O [omadacycline]
relative viability EC50: > 10 µM
//
compound: C#C[C@]1(O)CC[C@H]2[C@@H]3CCC4=CC(=O)CC[C@@H]4[C@H]3C(=C)C[C@@]21CC [etonogestrel]
relative viability EC50: > 10 µM
//
compound: CCC(=O)Nc1cccc(Oc2nc(Nc3ccc(N4CCN(C)CC4)cc3OC)ncc2Cl)c1 [WZ4003]
relative viability EC50: > 10 µM
//
compound: Cc1sc2c(c1C)C(c1ccc(Cl)cc1)=N[C@@H](CC(N)=O)c1nnc(C)n1-2 [CPI-203]
relative viability EC50: 0.186 µM

====

Test system: U2OS
Assay: drug sensitivity score (DSS) for viability; higher = more toxic; extreme values may be limits of the assay
Details: 72 h
Listed here: items and their measured drug sensitivity score.
measured-endpoint: drug sensitivity score

compound: NC(=O)C1=CN([C@@H]2O[C@H](COP(=O)(O)OP(=O)(O)OC[C@H]3O[C@@H](n4cnc5c(N)ncnc54)[C@H](O)[C@@H]3O)[C@@H](O)[C@H]2O)C=CC1
reported: 0
//
compound: O=C(O)C1=CCCNC1
reported: 0
//
compound: Cc1ncc(OC[C@@]2(c3cccc(F)c3)C[C@H]2C(=O)Nc2ccc(F)cn2)c(C)n1
reported: 0
//
compound: CC(C)CNc1nc(-c2cccc3ncccc23)cn2c(-c3ccc(C(=O)NC4CC4)cc3)cnc12
reported: 1.4
//
compound: O=C(/C=C/c1ccc2c(c1)OCO2)N1CCCCC1 [ilepcimide]
reported: 0
//
compound: O=C1NC(=O)/C(=C/c2ccc3nccc(-c4ccncc4)c3c2)S1
reported: 4.8
//
compound: CC(=O)CC(=O)O [lithium-acetoacetate]
reported: 0
//
compound: S=C=Nc1ccc(N=C=S)cc1 [bitoscanate]
reported: 0
//
compound: COc1ccccc1C(=O)Nc1cccc(NC(=O)c2cccc(C)c2)c1
reported: 0
//
compound: Cc1cc2nc3c(=O)[nH]c(=O)nc-3n(C)c2cc1C=O
reported: 5.5
